target: Amine oxidase [flavin-containing] B (Homo sapiens, UniProt P27338); assay: Inhibition of recombinant human MAO-B expressed in baculovirus infected BTI insect cells at 10 uM preincubated for 30 mins followed by addition of p-tyramine as substrate measured over 45 mins by Amplex Red MAO assay relative to control; conditions: 0.75 h
Sequence (P27338 whole entry): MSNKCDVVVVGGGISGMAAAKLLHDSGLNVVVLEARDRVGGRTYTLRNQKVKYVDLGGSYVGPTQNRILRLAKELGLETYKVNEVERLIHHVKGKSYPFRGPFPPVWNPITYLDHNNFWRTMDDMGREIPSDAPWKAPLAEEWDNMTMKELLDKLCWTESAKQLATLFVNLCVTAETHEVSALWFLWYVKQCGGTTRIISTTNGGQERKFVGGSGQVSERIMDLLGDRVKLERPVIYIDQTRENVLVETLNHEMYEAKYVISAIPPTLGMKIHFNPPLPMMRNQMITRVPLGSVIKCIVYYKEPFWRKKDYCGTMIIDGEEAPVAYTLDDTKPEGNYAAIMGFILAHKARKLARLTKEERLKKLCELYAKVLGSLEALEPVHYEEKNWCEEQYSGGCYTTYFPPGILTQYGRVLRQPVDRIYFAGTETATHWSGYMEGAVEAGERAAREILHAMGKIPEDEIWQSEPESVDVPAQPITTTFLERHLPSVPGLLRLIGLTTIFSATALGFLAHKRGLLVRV
Listed below: inhibition at 10 µM values for each entry.
Quantity Measured: inhibition at 10 µM (%)

molecule=Cn1c(=O)c2c(nc3n2CCN(Cc2csc(-c4ccc(C(F)(F)F)cc4)n2)C3)n(C)c1=O assay_value=54
molecule=Cn1c(=O)c2c(nc3n2CCN(CC#Cc2cccc(Cl)c2)C3)n(C)c1=O assay_value=5
molecule=Cn1c(=O)c2c(nc3n2CCN(CCc2cccs2)C3)n(C)c1=O assay_value=21
molecule=Cn1c(=O)c2c(nc3n2CCN(CCCc2ccc(Cl)cc2)C3)n(C)c1=O assay_value=44
molecule=Cn1c(=O)c2c(nc3n2CCN(CCCn2cccc2)C3)n(C)c1=O assay_value=27
molecule=Cn1c(=O)c2c(nc3n2CCN(Cc2ccccc2)C3)n(C)c1=O assay_value=36
molecule=Cn1c(=O)c2c(nc3n2CCN(Cc2csc(-c4cccc(Cl)c4)n2)C3)n(C)c1=O assay_value=-2
molecule=Cn1c(=O)c2c(nc3n2CCN(CCOc2ccccc2)C3)n(C)c1=O assay_value=16
molecule=Cn1c(=O)c2c(nc3n2CCN(CCCc2cccc(Br)c2)C3)n(C)c1=O assay_value=26
molecule=Cn1c(=O)c2c(nc3n2CCN([C@H]2CCc4ccccc42)C3)n(C)c1=O assay_value=22
molecule=Cn1c(=O)c2c(nc3n2CCN(CCc2ccc4c(c2)OCO4)C3)n(C)c1=O assay_value=24
molecule=COc1cccc(CCN2CCn3c(nc4c3c(=O)n(C)c(=O)n4C)C2)c1 assay_value=10
molecule=Cn1c(=O)c2c(nc3n2CCN(CCCn2ccnc2)C3)n(C)c1=O assay_value=2
molecule=COc1cccc(C#CCN2CCn3c(nc4c3c(=O)n(C)c(=O)n4C)C2)c1 assay_value=13
molecule=Cn1c(=O)c2c(nc3n2CCN(CCn2cccc2)C3)n(C)c1=O assay_value=19
molecule=COc1ccc(Br)cc1CCN1CCn2c(nc3c2c(=O)n(C)c(=O)n3C)C1 assay_value=3
molecule=Cn1c(=O)c2c(nc3n2CCN(CC#Cc2ccc(Cl)c(Cl)c2)C3)n(C)c1=O assay_value=31
molecule=C#CCN1CCn2c(nc3c2c(=O)n(C)c(=O)n3C)C1 assay_value=27
molecule=Cn1c(=O)c2c(nc3n2CCN(Cc2csc(-c4cccs4)n2)C3)n(C)c1=O assay_value=33
molecule=Cn1c(=O)c2c(nc3n2CCN(CCc2cccc(Cl)c2)C3)n(C)c1=O assay_value=61
molecule=Cc1cc(CN2CCn3c(nc4c3c(=O)n(C)c(=O)n4C)C2)n(C)n1 assay_value=-17
molecule=COc1ccc(CCN2CCn3c(nc4c3c(=O)n(C)c(=O)n4C)C2)cc1OC assay_value=13
molecule=Cn1c(=O)c2c(nc3n2CCN(CCOc2ccccc2F)C3)n(C)c1=O assay_value=24
molecule=Cn1c(=O)c2c(nc3n2CCN(CCOc2ccc(Cl)c(Cl)c2)C3)n(C)c1=O assay_value=27
molecule="CC(CN1CCn2c(nc3c2c(=O)n(C)c(=O)n3C)C1)c1ccccc1 (stereo unspecified)" assay_value=11
molecule=Cc1sc(-c2ccc(C(F)(F)F)cc2)nc1CN1CCn2c(nc3c2c(=O)n(C)c(=O)n3C)C1 assay_value=67
molecule=Cn1c(=O)c2c(nc3n2CCN(c2ccccc2)C3)n(C)c1=O assay_value=61
molecule="Cn1c(=O)c2c(nc3n2CCN(CC(O)c2ccccc2)C3)n(C)c1=O (stereo unspecified)" assay_value=3
molecule=Cn1c(=O)c2c(nc3n2CCN(c2ccc(Cl)cc2)C3)n(C)c1=O assay_value=15
molecule=Cn1c(=O)c2c(nc3n2CCN(CCc2ccc(O)cc2)C3)n(C)c1=O assay_value=15
molecule=COc1cccc2c1CC[C@H](N1CCn3c(nc4c3c(=O)n(C)c(=O)n4C)C1)C2 assay_value=7
molecule=Cn1c(=O)c2c(nc3n2CCN(Cc2csc(-c4ccc(Cl)cc4)n2)C3)n(C)c1=O assay_value=47
molecule=Cn1c(=O)c2c(nc3n2CCN(Cc2nocc2-c2ccccc2)C3)n(C)c1=O assay_value=39
molecule=COc1ccccc1CCN1CCn2c(nc3c2c(=O)n(C)c(=O)n3C)C1 assay_value=4
molecule=Cn1c(=O)c2c(nc3n2CCN(CCOc2cccc(F)c2)C3)n(C)c1=O assay_value=22
molecule=Cn1c(=O)c2c(nc3n2CCN(C2CCN(Cc4ccccc4)CC2)C3)n(C)c1=O assay_value=2
molecule=Cn1c(=O)c2c(nc3n2CCN(CCc2cccc(C(F)(F)F)c2)C3)n(C)c1=O assay_value=63
molecule=Cn1c(=O)c2c(nc3n2CCN(CCc2cc(C(F)(F)F)ccc2F)C3)n(C)c1=O assay_value=58
molecule=Cn1c(=O)c2c(nc3n2CCN(CCc2ccccc2)C3)n(C)c1=O assay_value=39
molecule=Cn1c(=O)c2c(nc3n2CCN(CCc2ccc(Cl)cc2)C3)n(C)c1=O assay_value=36
molecule=Cn1c(=O)c2c(nc3n2CCN(CCc2ccc(F)c(F)c2)C3)n(C)c1=O assay_value=60
